System: CD2F1 mice, L1210 leukemia ip, survival T/C
ASSAY_PROCEDURE: NCI In Vivo Anticancer Drug Screen. Data for tumor model L1210 Leukemia (intraperitoneal) in CD2F1 (CDF1) mice
SETUP_CONDITIONS: endpoint: mean survival time; dose: 100.0 mg/kg/injection; schedule: Q01DX001 (ip); vehicle: saline with Tween-80; higher = longer survival
Inconclusive results and toxic doses are left out.
Assignment: determine reported T/C for the given molecules.

In plain terms, CC(C)(C)CC(C)(C)c1ccc(O)cc1O has a documented T/C of 101 % of control

In plain terms, CCCCCCCCCCCCOc1ccc(Sc2ccc(OCCCCCCCCCCCC)cc2C)c(C)c1 has a documented T/C of 86 % of control

In plain terms, CC1(C)OC2COC(c3cc(C(N)=O)n[nH]3)C2O1 (stereo not drawn) has a documented T/C of 106 % of control

In plain terms, Nc1nc(-c2cccc([N+](=O)[O-])c2)c(N=Nc2cccc([N+](=O)[O-])c2)s1 has a documented T/C of 89 % of control

In plain terms, CC(=O)OC1CCC2(C)C3CCC4(C)C(OC(=O)c5ccccc5)CCC4C3C3C(=O)OC32C1 (stereo not drawn) has a documented T/C of 91 % of control

In plain terms, C/C(=N/Nc1ccc([N+](=O)[O-])cc1[N+](=O)[O-])C1CC2CCC1C2 (stereo not drawn) has a documented T/C of 100 % of control

In plain terms, Oc1ccc(CCNCc2cc3c(cc2Br)OCO3)cc1 has a documented T/C of 104 % of control

In plain terms, N#CC(c1ccccn1)N1CCOCC1 (stereo not drawn) has a documented T/C of 94 % of control

In plain terms, Cc1ncc(C=C(C(=O)O)C(=O)O)n1Cc1ccccc1 has a documented T/C of 98 % of control

In plain terms, Cc1ccc(-n2c(=S)[nH]c3ccccc3c2=O)cc1F has a documented T/C of 92 % of control

In plain terms, CC(=O)N/N=C\C1=CCC=C(Br)S1 has a documented T/C of 93 % of control

In plain terms, Cc1cc(O)c(C(C)(C)C)cc1C(c1ccccc1)c1cc(C(C)(C)C)c(O)cc1C has a documented T/C of 93 % of control

In plain terms, Nc1ccccc1C(=O)C/C=C/c1ccccc1 has a documented T/C of 95 % of control

In plain terms, CCOC(=O)C[n+]1ccc(C(=O)c2cc3ccccc3[nH]2)cc1 has a documented T/C of 97 % of control

In plain terms, Clc1ccccc1-c1nc2ccccc2s1 has a documented T/C of 91 % of control

In plain terms, O=C(O)Cc1cc(=O)oc2ccccc12 has a documented T/C of 104 % of control

In plain terms, CCCC/C=C\C=C/CCCC has a documented T/C of 102 % of control

In plain terms, CC(C)N1C(=O)[N+](C)(C)N=C1[O-] has a documented T/C of 103 % of control

In plain terms, NS(=O)(=O)c1ccc(Cl)c2ccccc12 has a documented T/C of 93 % of control

In plain terms, C=CCCCCCCCCC(=O)NC(C)COC (stereo not drawn) has a documented T/C of 107 % of control

In plain terms, O=C1c2cccc([N+](=O)[O-])c2C(=O)c2c1cccc2[N+](=O)[O-] has a documented T/C of 103 % of control

In plain terms, CC(=O)/C(=C\c1ccccc1)CNC(C)(C)C has a documented T/C of 100 % of control

In plain terms, CCC1(c2cccc([N+](=O)[O-])c2)OCCO1 has a documented T/C of 94 % of control

In plain terms, OC1CCSc2ccc3ccccc3c21 (stereo not drawn) has a documented T/C of 108 % of control

In plain terms, O=C1NC(=NC2CCCCC2)C2(CCN(CC3COc4ccccc4O3)CC2)N1c1ccccc1 (stereo not drawn) has a documented T/C of 91 % of control

In plain terms, O=C1C2C(c3ccccc3)=C(c3ccccc3)C1[C@@]1(c3ccccc3)C(c3ccccc3)=CC(=O)[C@@H]21 (stereo partly drawn) has a documented T/C of 87 % of control

In plain terms, NN1CCOC1=O has a documented T/C of 97 % of control

In plain terms, CC1(CO)C2CCC(CC2)C1CO (stereo not drawn) has a documented T/C of 95 % of control

In plain terms, CC1(C)C(N2CCOCC2)C(c2ccccc2)S1(=O)=O (stereo not drawn) has a documented T/C of 101 % of control

In plain terms, COC1=C(OCc2ccccc2)C(=O)OC1C(O)CO (stereo not drawn) has a documented T/C of 98 % of control

In plain terms, CCCCCCCCCCCCCCCCCCCCCC(=O)CCCCCCCCCCCCCCCCCCCCC has a documented T/C of 86 % of control

In plain terms, CC1CC(C)(C)N=C(C2CCCC2)O1 (stereo not drawn) has a documented T/C of 96 % of control

In plain terms, CCCCCCC(C)(O)CCCCCC has a documented T/C of 93 % of control

In plain terms, COC(=O)Cc1cc(O)c(C(=O)OC)c(O)c1C(=O)OC has a documented T/C of 103 % of control

In plain terms, CCOC(=O)Nc1cc(NCc2ccccc2)c(N)c(N)n1 has a documented T/C of 103 % of control

In plain terms, CNc1cc(=O)[nH]cn1 has a documented T/C of 95 % of control

In plain terms, c1ccc2cc(OCCOCCOc3ccc4ccccc4c3)ccc2c1 has a documented T/C of 103 % of control

In plain terms, CCCCCCCCCC(=O)NC(=S)Nc1c(C)cccc1C has a documented T/C of 92 % of control

----------
Tested on: CD2F1 mice, L1210 leukemia ip, survival T/C
ASSAY_PROCEDURE: NCI In Vivo Anticancer Drug Screen. Data for tumor model L1210 Leukemia (intraperitoneal) in CD2F1 (CDF1) mice
SETUP_CONDITIONS: endpoint: median survival time; dose: 100.0 mg/kg/injection; schedule: Q01DX009 (ip); vehicle: saline with Tween-80; higher = longer survival
Description: The antitumor activity of compounds was measured in mice bearing transplantable tumors. Survival or tumor size were measured and the results are expressed as the measurement made in the treated group (T) divided by the measurement made in the vehicle treated control group (C). The tumor model used in this assay is L1210 Leukemia (intraperitoneal) in CD2F1 (CDF1) mice
Inconclusive results and toxic doses are left out.
MEASURED_METRIC: T/C

In plain terms, CCN(CC)CCNc1ccc(C)c2sc3ccccc3c(=O)c12 has a documented T/C of 198 % of control

In plain terms, c1ccc(P(CCNCCP(c2ccccc2)c2ccccc2)c2ccccc2)cc1 has a documented T/C of 103 % of control

In plain terms, Oc1ccc(/C=N/N=C/c2ccc(O)c(O)c2)cc1O has a documented T/C of 112 % of control

In plain terms, O=C1SC(c2ccccc2)=S=C1c1ccccc1 has a documented T/C of 103 % of control

----------
Assignment: determine reported T/C for the given molecules.
Test system: CD2F1 mice, L1210 leukemia ip, survival T/C
ASSAY_PROCEDURE: NCI In Vivo Anticancer Drug Screen. Data for tumor model L1210 Leukemia (intraperitoneal) in CD2F1 (CDF1) mice
SETUP_CONDITIONS: endpoint: mean survival time; dose: 400.0 mg/kg/injection; schedule: Q04DX003 (ip); vehicle: saline with Tween-80; higher = longer survival
Inconclusive results and toxic doses are left out.

In plain terms, C[Si]1(C)N(c2ccccc2)[Si](C)(C)N(c2ccccc2)[Si](C)(C)N1c1ccccc1 has a documented T/C of 93 % of control

In plain terms, O=C(O)C1CCCN1C(=O)c1ccccc1 (stereo unspecified) has a documented T/C of 98 % of control

In plain terms, c1ccc(-c2ncnc3ccccc23)cc1 has a documented T/C of 97 % of control

In plain terms, C=C1CCCCCCCCCCC1O (stereo unspecified) has a documented T/C of 91 % of control

In plain terms, O=C1CCCC(=O)N1CCCCCCN1C(=O)CCCC1=O has a documented T/C of 101 % of control

In plain terms, Cc1cccc(C)c1NC(=O)c1cccc(Cl)c1 has a documented T/C of 98 % of control

In plain terms, c1ccc(CSC2=NCCS2)cc1 has a documented T/C of 97 % of control

In plain terms, COC1OC(COC(=O)c2ccccc2)C(OC(=O)c2ccccc2)C(OC(=O)c2ccccc2)C1OC(=O)c1ccccc1 (stereo unspecified) has a documented T/C of 87 % of control

In plain terms, O=C(C(Oc1ccc(Cl)cc1)Oc1ccc(Cl)cc1)N(O)c1ccccc1OCc1ccccc1 has a documented T/C of 94 % of control

In plain terms, O=C1NC(=O)C(c2ccccc2)(C2CCC2)N1 (stereo unspecified) has a documented T/C of 88 % of control

In plain terms, O=C1C=CC(=Nc2ccccc2Cl)O1 has a documented T/C of 100 % of control

In plain terms, C(=C(c1ccccc1)c1ccccc1)=C(c1ccccc1)c1ccccc1 has a documented T/C of 95 % of control

In plain terms, Clc1ccc(C(=Cc2ccccc2)c2ccc(Cl)cc2)cc1 has a documented T/C of 97 % of control

In plain terms, Cc1ccc(N=C=C(c2ccccc2)c2ccccc2)cc1 has a documented T/C of 94 % of control

In plain terms, Cc1ccc(NC(=O)c2ccccc2Cl)cc1 has a documented T/C of 93 % of control

In plain terms, C/C(Cc1ccccc1)=N\O has a documented T/C of 114 % of control

In plain terms, O=CNc1ccc2c(c1)C(Br)c1ccccc1-2 (stereo unspecified) has a documented T/C of 88 % of control

In plain terms, C=CCOc1ccc(OC)cc1 has a documented T/C of 92 % of control

In plain terms, Nc1ccc2c(S(=O)(=O)O)ccc(O)c2c1 has a documented T/C of 98 % of control

In plain terms, O=c1c(Cl)cc(Cl)cn1S(=O)(=O)c1ccc([N+](=O)[O-])cc1 has a documented T/C of 101 % of control

In plain terms, O=C1Cc2ccccc2CO1 has a documented T/C of 105 % of control

In plain terms, CCCCC(NCCNC(CCCC)C(=O)O)C(=O)O (stereo unspecified) has a documented T/C of 107 % of control

In plain terms, O=C(CC(NC(=O)OCc1ccccc1)C(=O)O)OCc1ccccc1 (stereo unspecified) has a documented T/C of 102 % of control

In plain terms, Cc1ccc(C(=O)c2nnc(C(=O)c3ccc(C)cc3)nn2)cc1 has a documented T/C of 86 % of control

In plain terms, NC1CC(=O)C(CC2C(=O)CC(N)CC2=O)C(=O)C1 (stereo unspecified) has a documented T/C of 98 % of control

In plain terms, c1ccc(COCCOCc2ccccc2)cc1 has a documented T/C of 108 % of control
